Mouse Hepatic Microsome CLh,int NADPH(-) values for the compounds below.
# ASSAY INFO: Metabolic stability test: liver microsomal stability assay
# Assay type: in vitro ADME, mouse
# TEST CONDITIONS: mouse liver microsomes 0.5 mg protein/mL, compound 1 µM, absence of NADPH
Starred links: 1 amine or outer side, 2 acyl side, 3 side chain; linkers in the order of their positions; H or OH if unused. Positions of bridges follow the written chain, without caps; N, C: chain ends. Non-standard residues stand in square brackets, D forms with d. Residues, ends and D or L forms follow the SMILES beside them. *: point of attachment. NMeF = CN[C@@H](Cc1ccccc1)C(=O)O; NMeGABA = CN(CCCC(=O)[*:2])[*:1]; NMeI = CC[C@H](C)[C@H](NC)C(=O)O; NMeT = CN[C@H](C(=O)O)[C@@H](C)O; hPhe = N[C@@H](CCc1ccccc1)C(=O)O; NMeβAla = CN(CCC(=O)[*:2])[*:1]; NMeD = CN[C@@H](CC(=O)O)C(=O)O; NMeL = CN[C@@H](CC(C)C)C(=O)O; dNMeV = CN[C@@H](C(=O)O)C(C)C; NMeV = CN[C@H](C(=O)O)C(C)C; NMeAbu = CC[C@H](NC)C(=O)O; NMeA = CN[C@@H](C)C(=O)O; Piperidide = C1CCN(*)CC1; Abu = CC[C@H](N)C(=O)O; NBuGly = CCCCNCC(=O)O; Sar = CNCC(=O)O; tBu = CC(C)(C)*
Answer with a number only, understood to be in µL/min/mg Protein.

COMPOUND: CCCCN1CC(=O)N(C)[C@@H](CC(C)C)C(=O)N[C@@H]([C@@H](C)O)C(=O)N(C)[C@@H](CC(C)C)C(=O)N2CCC[C@H]2C(=O)N[C@@H](CCc2ccccc2)C(=O)N[C@@H]([C@@H](C)CC)C(=O)N(C)[C@H](C(=O)N2CCCCC2)CC(=O)N(C)[C@@H](CC(C)C)C(=O)N[C@@H](COC(C)(C)C)C(=O)N(C)[C@@H](C(C)C)C(=O)N[C@@H]([C@@H](C)CC)C(=O)N2CCC[C@H]2C1=O [pd159] ([NMeL]S(tBu)[NMeV]IP[NBuGly][NMeL]T[NMeL]P[hPhe]I[NMeD]-Piperidide; lactam N-13)
RESULT UNIT: µL/min/mg Protein
Mouse Hepatic Microsome CLh,int NADPH(-): 42.0
//
COMPOUND: CC[C@@H]1NC(=O)[C@H](C(C)C)N(C)C(=O)[C@H](CC(C)C)NC(=O)[C@H](CC(C)C)N(C)C(=O)[C@H]([C@@H](C)O)NC(=O)CN(C)C(=O)[C@H]([C@@H](C)CC)NC(=O)[C@H](Cc2ccccc2)N(C)C(=O)[C@H](CC(C)C)N(C)C(=O)C[C@@H](C(=O)N2CCCCC2)NC(=O)[C@H](Cc2ccccc2)N(C)C(=O)[C@H](COC(C)(C)C)NC(=O)[C@@H]2CCCN2C1=O [pd106] ([NMeL][NMeF]I[Sar]T[NMeL]L[NMeV][Abu]PS(tBu)[NMeF]D-Piperidide; lactam N-13)
RESULT UNIT: µL/min/mg Protein
Mouse Hepatic Microsome CLh,int NADPH(-): 37.4

Complete the entry with Mouse Hepatic Microsome CLh,int NADPH(-) for CC[C@H](C)[C@H]1C(=O)N[C@@H]([C@@H](C)O)C(=O)N(C)CC(=O)N(C)[C@@H](CC(C)C)C(=O)N(C)[C@@H](Cc2ccccc2)C(=O)N[C@H](C(=O)N2CCCCC2)CC(=O)N(C)[C@@H](C)C(=O)N[C@@H](CC(C)C)C(=O)N(C)[C@@H](Cc2ccccc2)C(=O)N(C)CCC(=O)N(C)[C@@H](CC(C)C)C(=O)N[C@@H](CC(C)C)C(=O)N(C)[C@@H](C)C(=O)N(C)[C@@H](CC)C(=O)N1C [pd003] ([NMeA]L[NMeF][NMeβAla][NMeL]L[NMeA][NMeAbu][NMeI]T[Sar][NMeL][NMeF]D-Piperidide; lactam N-14) 19.0

Complete the entry with Mouse Hepatic Microsome CLh,int NADPH(-) for CC(C)C[C@@H]1NC(=O)[C@H](CC(C)C)N(C)C(=O)[C@H]([C@@H](C)O)NC(=O)[C@H](C(C)C)N(C)C(=O)[C@H](Cc2ccccc2)N(C)C(=O)[C@@H](C(C)C)NC(=O)C[C@@H](C(=O)N2CCCCC2)N(C)C(=O)[C@H](C)N(C)C(=O)[C@H](Cc2ccccc2)N(C)C(=O)[C@H](C)NC(=O)[C@H](COC(C)(C)C)NC(=O)[C@H](CC(C)C)N(C)C(=O)CN(C)C1=O [pd158] ([dV][NMeF][NMeV]T[NMeL]L[Sar][NMeL]S(tBu)A[NMeF][NMeA][NMeD]-Piperidide; lactam N-13) 13.7

Complete the entry with Mouse Hepatic Microsome CLh,int NADPH(-) for CC[C@H](C)[C@@H]1NC(=O)[C@H](CC(C)C)N(C)C(=O)[C@H](CC(C)C)NC(=O)CCN(C)C(=O)C[C@@H](C(=O)N2CCCCC2)N(C)C(=O)[C@H](CC(C)C)N(C)C(=O)[C@H](C)N(C)C(=O)[C@H]([C@@H](C)O)N(C)C(=O)[C@H](CC(C)C)N(C)C(=O)[C@H](COC(C)(C)C)NC(=O)[C@H](Cc2ccccc2)N(C)C(=O)[C@H](CC(C)C)N(C)C(=O)[C@H](Cc2ccccc2)N(C)C1=O [pd166] ([NMeβAla]L[NMeL]I[NMeF][NMeL][NMeF]S(tBu)[NMeL][NMeT][NMeA][NMeL][NMeD]-Piperidide; lactam N-13) 34.0

Complete the entry with Mouse Hepatic Microsome CLh,int NADPH(-) for CC(C)C[C@@H]1NC(=O)[C@H](C(C)C)N(C)C(=O)[C@H](Cc2ccccc2)N(C)C(=O)[C@H](COC(C)(C)C)NC(=O)[C@H](CC(C)C)N(C)C(=O)[C@H](C)N(C)C(=O)[C@H]([C@@H](C)O)NC(=O)[C@H](CC(C)C)N(C)C(=O)[C@H](C(C)C)N(C)C(=O)[C@H](CCc2ccccc2)NC(=O)[C@H](CC(C)C)N(C)C(=O)[C@@H](C(C)C)N(C)C(=O)C[C@@H](C(=O)N2CCCCC2)N(C)C1=O [pd161] ([dNMeV][NMeL][hPhe][NMeV][NMeL]T[NMeA][NMeL]S(tBu)[NMeF][NMeV]L[NMeD]-Piperidide; lactam N-13) 37.0

Complete the entry with Mouse Hepatic Microsome CLh,int NADPH(-) for CC[C@H](C)[C@@H]1NC(=O)[C@H](Cc2ccccc2)N(C)C(=O)CN(C)C(=O)C[C@@H](C(=O)N2CCCCC2)NC(=O)[C@H]([C@@H](C)CC)N(C)C(=O)[C@H](COC(C)(C)C)NC(=O)[C@@H]2CCCN2C(=O)[C@H](CCc2ccccc2)NC(=O)[C@H](CC)N(C)C(=O)[C@H](CC(C)C)NC(=O)[C@H](CC(C)C)N(C)C(=O)[C@H]([C@@H](C)O)N(C)C(=O)[C@H](CC(C)C)N(C)C1=O [pd114] ([Sar][NMeF]I[NMeL][NMeT][NMeL]L[NMeAbu][hPhe]PS(tBu)[NMeI]D-Piperidide; lactam N-13) 29.2

Complete the entry with Mouse Hepatic Microsome CLh,int NADPH(-) for CC[C@H](C)[C@@H]1NC(=O)[C@H](COC(C)(C)C)NC(=O)[C@H]([C@@H](C)O)NC(=O)[C@H](Cc2ccccc2)N(C)C(=O)[C@H](C)N(C)C(=O)[C@H](CC(C)C)N(C)C(=O)[C@H](CCc2ccccc2)NC(=O)[C@@H]2CCCN2C(=O)[C@H]([C@@H](C)CC)NC(=O)[C@H](CC(C)C)N(C)C(=O)[C@H](C)NC(=O)CCCN(C)C(=O)C[C@@H](C(=O)N2CCCCC2)NC(=O)[C@H](CC(C)C)N(C)C1=O [pd022] ([NMeGABA]A[NMeL]IP[hPhe][NMeL][NMeA][NMeF]TS(tBu)I[NMeL]D-Piperidide; lactam N-14) 36.4
